Target: T1, DVL3, Q92997
T1 sequence (Q92997 244-331, limits assumed, looked up): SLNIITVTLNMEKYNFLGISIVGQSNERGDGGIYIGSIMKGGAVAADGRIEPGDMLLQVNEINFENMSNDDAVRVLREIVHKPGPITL
Test: holdup assay
Parameters: key: below the threshold = too weak to quantify, mostly under pKd 3.1 to 4
Details: plain residues with an end cap or a label only (N-terminal biotin on a linker: ado-ado)
READOUT_TYPE: pKd

| BINDER | READOUT_TYPE | EXPERIMENTAL_VALUE |
| --- | --- | --- |
| NTLNRKTTPV [CACNG8, Q8WXS5] | pKd | below the threshold |
| PYSESDDDWC [CACNA1A, O00555] | pKd | below the threshold |
| EKCGKEFSEF [PRKACA, P17612] | pKd | below the threshold |
| PPGKHLVTEV [KCNA7, Q96RP8] | pKd | below the threshold |
| TGLWKHETTV [ADGRA3, Q8IWK6] | pKd | below the threshold |
| VLYPREGTEV [FOXI1, Q12951] | pKd | below the threshold |
| PYPTADHMLA [JUP, P14923] | pKd | below the threshold |
| QLSFNTDTLC [ABCA2, Q9BZC7] | pKd | below the threshold |
